Recorded pKi values (Adenosine receptor A2a (Homo sapiens)) are given below.
pKi: −log10 of the molar value.
property: pKi

smiles_string=Nc1nc(C(=O)NCc2nccc3ccccc23)c2cccc(F)c2n1 property=pKi recorded_number=8.17
smiles_string=Nc1nc(C(=O)NCc2ccc3ccccc3n2)c2cccc(F)c2n1 property=pKi recorded_number=7.82
smiles_string=Nc1nc(C(=O)NCc2cccc3c2NCCC3)c2cccc(F)c2n1 property=pKi recorded_number=8.12
smiles_string=Nc1nc(C(=O)NCc2cccc3cc[nH]c23)c2cccc(F)c2n1 property=pKi recorded_number=8.09
smiles_string=Cc1cccc(CNC(=O)c2nc(N)nc3c(F)cccc23)c1 property=pKi recorded_number=8.08

The values you see were collected from ChEMBL document CHEMBL3763049.
